Origin of the recorded values: the supplement of paper PMC11451515

tested on: P12-Ichikawa; experiment: cell viability relative to DMSO control; higher = less cytotoxic; settings: RPMI 5 mM glucose + 10% dialyzed FBS; 48 h; 0.00702 µM
Parameter Measured: cell viability (%)

Query Smiles	Study System	Reported Result
COc1cc2nccc(Oc3ccc(NC(=O)C4(C(=O)Nc5ccc(F)cc5)CC4)cc3)c2cc1OC	P12-Ichikawa	120
CCC[C@@H]1C[C@@H](C(=O)N[C@@H]([C@H]2O[C@H](SC)[C@H](O)[C@@H](O)[C@H]2O)[C@@H](C)O)N(C)C1.Cl	P12-Ichikawa	128
O=C/1\C=C(/OC(=C1)/C2=C3SC4=C(SC3=CC=C2)C=CC=C4)N5CCOCC5	P12-Ichikawa	97.2
CN(C)Cc1ccc(-c2nc3cccc4c3n2CCNC4=O)cc1	P12-Ichikawa	101
